Target: T1, human GITR (amino acids M1-V241, NCBI Accession #NP_004186.1) expressed on cells (human, UniProt Q9Y5U5 26-241)
T1 construct: also called hGITR; hGITR/HEK293-D9
T1 sequence: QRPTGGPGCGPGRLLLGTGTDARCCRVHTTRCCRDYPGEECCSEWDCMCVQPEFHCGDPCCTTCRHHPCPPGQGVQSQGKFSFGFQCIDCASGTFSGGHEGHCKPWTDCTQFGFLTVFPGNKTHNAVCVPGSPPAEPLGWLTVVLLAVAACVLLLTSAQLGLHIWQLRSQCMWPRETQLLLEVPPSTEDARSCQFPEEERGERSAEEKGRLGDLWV
Test: ECL cell binding, hGITR/HEK293-D9
PARAMETER_MEASURED: Average Signal (RLU) at 100 nM
One number for each entry, in RLU.

Please review the entries below; each comes with its answer.
Input line: Sample H1H14493P (antibody, human IgG1, V domains shown, human IgG1 (H1H)) VH: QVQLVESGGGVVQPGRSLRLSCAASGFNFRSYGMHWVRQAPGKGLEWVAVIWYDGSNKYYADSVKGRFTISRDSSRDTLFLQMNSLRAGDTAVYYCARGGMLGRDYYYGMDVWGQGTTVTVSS VL: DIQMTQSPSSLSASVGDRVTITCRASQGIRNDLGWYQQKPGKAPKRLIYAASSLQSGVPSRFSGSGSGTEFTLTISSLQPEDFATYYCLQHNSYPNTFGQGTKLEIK — what was its Average Signal (RLU) at 100 nM?
Output line: 7220

Input line: Okay, and H1H14520P (antibody, human IgG1, V domains shown, human IgG1 (H1H)) VH: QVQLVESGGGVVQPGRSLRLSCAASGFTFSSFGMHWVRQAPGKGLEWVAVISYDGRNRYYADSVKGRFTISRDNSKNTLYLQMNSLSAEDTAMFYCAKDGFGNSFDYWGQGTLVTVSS VL: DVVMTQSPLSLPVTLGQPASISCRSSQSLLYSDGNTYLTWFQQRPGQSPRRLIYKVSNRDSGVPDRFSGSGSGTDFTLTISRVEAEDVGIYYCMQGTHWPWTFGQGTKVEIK ?
Output line: 6450

Next item in the queue.
Input line: What Average Signal (RLU) at 100 nM value was documented for this binder, H4H14528P (antibody, human IgG4, V domains shown, human IgG4 (H4H)) VH: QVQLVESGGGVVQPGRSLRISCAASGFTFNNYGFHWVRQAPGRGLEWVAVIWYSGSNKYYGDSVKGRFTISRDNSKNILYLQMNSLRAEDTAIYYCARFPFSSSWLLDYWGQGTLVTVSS VL: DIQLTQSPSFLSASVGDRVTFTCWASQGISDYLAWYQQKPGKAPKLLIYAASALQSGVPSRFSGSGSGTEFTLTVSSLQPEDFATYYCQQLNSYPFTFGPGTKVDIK ?
Output line: 7310
